target-or-test-system: T1, memapsin 2 (Homo sapiens, UniProt P56817)
T1 construct: pET-11 vector-derived residues 1-15 of promemapsin 2-T1 (N, cleaved yes); made in house; host or cells: E. coli
T1 sequence (P56817 41-454 limits assumed): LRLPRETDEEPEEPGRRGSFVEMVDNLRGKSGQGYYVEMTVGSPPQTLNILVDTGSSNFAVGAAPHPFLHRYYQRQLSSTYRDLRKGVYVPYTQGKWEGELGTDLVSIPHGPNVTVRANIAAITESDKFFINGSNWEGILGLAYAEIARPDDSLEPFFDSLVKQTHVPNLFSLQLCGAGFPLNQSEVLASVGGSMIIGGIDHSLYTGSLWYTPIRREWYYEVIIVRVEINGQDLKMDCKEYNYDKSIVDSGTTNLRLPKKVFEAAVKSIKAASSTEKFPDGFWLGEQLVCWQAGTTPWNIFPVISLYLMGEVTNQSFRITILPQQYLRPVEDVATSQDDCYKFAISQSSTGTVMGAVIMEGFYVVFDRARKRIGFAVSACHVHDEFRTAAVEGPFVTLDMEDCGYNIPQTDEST
assay-overview: Inhibition of memapsin 2 proteolytic activity, fluorogenic substrate FS-2
Assay type: biochemical
condition-parameters: memapsin 2; apparent Ki in presence of substrate FS-2; read-out: Ki app
Protocol: Ki is the inhibition equilibrium constant which indicates the ability of compounds to inhibit the β-secretase activity of memapsin 2 and memapsin 1. […] The K1 value is independent of the substrate, and converted from Ki apparent. The Vi/Vo values depicted in Table 1 were determined at conditions under which the enzyme and inhibitor concentrations were equal (e.g., about 80 nM, 100 nM). […]
parameter-measured: Ki (µM)

P = CSCC[C@H](NC(=O)[C@@H](NC(=O)OC(C)(C)C)C(C)C)C(=O)N[C@@H](CC(C)C)[C@@H](O)C[C@@H](C)C(=O)N[C@@H](C(C)C)C1CC(Cc2ccccc2)CC(=O)O1 (stereo partly drawn) [MMI-140]
Q = CSCC[C@H](NC(=O)CCn1nc(C)cc1C)C(=O)N[C@@H](CC(C)C)[C@@H](O)C[C@@H](C)C(=O)N[C@H](C(=O)NCC(C)C)C(C)C
R = CSCC[C@H](NC(=O)OC(C)(C)C)C(=O)N[C@@H](CC(C)C)[C@@H](O)C[C@@H](C)C(=O)N[C@@H](C)C(=O)NCc1ccccc1
Query: # rank by Ki, ascending (min first) Rank them, then answer with their labels in that order.
Result: Q, P, R
(Q: 0.0623 µM, P: 38.7 µM, R: 63.3 µM)

###

target-or-test-system: T1, memapsin 2 (Homo sapiens, UniProt P56817)
T1 construct: pET-11 vector-derived residues 1-15 of promemapsin 2-T1 (N, cleaved yes); made in house; host or cells: E. coli
assay-overview: Inhibition of memapsin 2 proteolytic activity, fluorogenic substrate FS-2
Assay type: biochemical
condition-parameters: memapsin 2; apparent Ki in presence of substrate FS-2; read-out: Ki app
pKi: −log10 of the molar value.
parameter-measured: pKi

Example compounds with recorded pKi:
CC(C)C[C@H](NC(=O)[C@@H](NC(=O)[C@@H](NC(=O)OC(C)(C)C)C(C)C)[C@@H]1CCOC1)[C@@H](O)C[C@@H](C)C(=O)N[C@H](C(=O)NCc1ccccc1)C(C)C :: 5.79
CSCC[C@H](NC(=O)[C@H](C(C)C)N1CCCNC1=O)C(=O)N[C@@H](CC(C)C)[C@@H](O)C[C@@H](C)C(=O)N[C@@H](CC(C)C)C(=O)NCC(C)C :: 6.12

A = CSCC[C@H](NC(=O)OCn1nc(C)cc1C)C(=O)N[C@@H](CC(C)C)[C@@H](O)C[C@]1(C)CCN([C@@H](CC(C)C)C(=O)NCC(C)C)C1=O
B = CSCC[C@H](NC(=O)OCn1nc(C)cc1C)C(=O)N[C@@H](CC(C)C)[C@@H](O)C[C@@H](C)C(=O)N[C@@H](CC(C)C)C(=O)N1CCN(C)CC1
C = CSCC[C@H](NS(=O)(=O)c1ccc(CO)cc1)C(=O)N[C@@H](Cc1ccccc1)[C@@H](O)C[C@@H](C)C(=O)N[C@H](C(=O)NCc1ccccc1)C(C)C
Query: Thanks in advance: please rank these 3 entries by pKi, highest to lowest. Rank them, then answer with their labels in that order.
Result: A, B, C
(A: 6.41, B: 5.92, C: 4.26)

###

target-or-test-system: T1, memapsin 2 (Homo sapiens, UniProt P56817)
T1 construct: pET-11 vector-derived residues 1-15 of promemapsin 2-T1 (N, cleaved yes); made in house; host or cells: E. coli
assay-overview: Inhibition of memapsin 2 proteolytic activity, fluorogenic substrate FS-2
Assay type: biochemical
condition-parameters: memapsin 2; apparent Ki in presence of substrate FS-2; read-out: Ki app
parameter-measured: Ki (nM)

Example compounds with recorded Ki:
CSCC[C@H](NC(=O)[C@H](CC(C)C)NC(=O)OC(C)(C)C)C(=O)N[C@@H](CC(C)C)[C@@H](O)C[C@@H](C)C(=O)N[C@H](C(=O)NCc1ccco1)C(C)C :: 0.68
CSCC[C@H](NC(=O)OCCn1nc(C)c2c1CSC2)C(=O)N[C@@H](CC(C)C)[C@@H](O)C[C@@H](C)C(=O)N[C@@H](CC(C)C)C(=O)NC(C)C :: 1910
CSCC[C@H](NC(=O)[C@@H](NC(=O)c1cccc(O)c1C)C(C)C)C(=O)N[C@@H](CC(C)C)[C@@H](O)C[C@@H](C)C(=O)N[C@@H](CC(C)C)C(=O)NCc1ccccc1 :: 9550
CSCC[C@H](NC(=O)OCn1nc(C)cc1C)C(=O)N[C@@H](CC(C)C)[C@@H](O)C[C@@H](C)C(=O)N[C@@H](CC(C)C)C(=O)NC(C)C :: 70
CSCC[C@H](NC(=O)[C@H](CC(C)C)NC(C)=O)C(=O)N[C@@H](CC(C)C)[C@@H](O)C[C@@H](C)C(=O)N[C@H](C(=O)NCc1ccccc1)C(C)C :: 64.1

I = CSCC[C@H](NC(=O)C(Cn1nc(C)cc1C)C(C)C)C(=O)N[C@@H](CC(C)C)[C@@H](O)C[C@@H](C)C(=O)N[C@H](C(=O)NCc1ccco1)C(C)C (some centres unmarked)
II = CC(C)C[C@H](NC(=O)[C@H](CCS(C)(=O)=O)NC(=O)[C@@H](NC(=O)OC(C)(C)C)C(C)C)[C@@H](O)C[C@@H](C)C(=O)N[C@H](C(=O)NCc1ccccc1)C1CCCO1 (some centres unmarked)
Query: Thinking about recorded Ki values, which is higher, I or II ? Respond using the label that marks the chosen record.
Result: II
(II: 426 nM, I: 41 nM)

I = CSCC[C@H](NC(=O)[C@@H](NC(=O)OC(C)(C)C)C(C)C)C(=O)N[C@@H](CC(C)C)[C@@H](O)C[C@@H](C)C(=O)N[C@H](C(=O)NCc1cccnc1)C(C)C
II = Cc1cc(C)n(CCOC(=O)N[C@@H](CCN2CCOCC2)C(=O)N[C@@H](CC(C)C)[C@@H](O)C[C@@H](C)C(=O)N[C@@H](CC(C)C)C(=O)NC(C)C)n1
III = CC(C)C[C@H](NC(=O)[C@H](CS(C)(=O)=O)NC(=O)OC(C)(C)C)[C@@H](O)C[C@@H](C)C(=O)N[C@H](C(=O)NCc1ccccc1)C(C)C
IV = CSC[C@H](NC(=O)OC(C)(C)C)C(=O)N[C@@H](CC(C)C)[C@@H](O)C[C@@H](C)C(=O)N[C@H](C(=O)NCc1ccccc1)C(C)C
Query: Please put the entries in order of rising Ki. Rank them, then answer with their labels in that order.
Result: I, III, II, IV
(I: 905 nM, III: 1440 nM, II: 8420 nM, IV: 15300 nM)

###

target-or-test-system: T1, memapsin 2 (Homo sapiens, UniProt P56817)
T1 construct: pET-11 vector-derived residues 1-15 of promemapsin 2-T1 (N, cleaved yes); made in house; host or cells: E. coli
assay-overview: Inhibition of memapsin 2 proteolytic activity, fluorogenic substrate FS-2
Assay type: biochemical
condition-parameters: memapsin 2; apparent Ki in presence of substrate FS-2; read-out: Ki app
pKi: −log10 of the molar value.
parameter-measured: pKi

CSCC[C@H](NC(=O)[C@@H](NC(=O)OC(C)(C)C)C(C)C)C(=O)N[C@@H](CC(C)C)[C@@H](O)C[C@@H](C)C(=O)N[C@@H](CC(C)C)C(=O)NC1Cc2ccccc2C1 :: 7.67

P = CC(C)CNC(=O)[C@@H](NC(=O)[C@H](C)C[C@H](O)[C@H](CC(C)C)NC(=O)[C@H](CCS(C)(=O)=O)NC(=O)[C@H](CC(C)C)NC(=O)OC(C)(C)C)C(C)C
Q = COc1cccc(C(=O)N[C@@H](CCSC)C(=O)N[C@@H](CC(C)C)[C@@H](O)C[C@@H](C)C(=O)N[C@@H](CC(C)C)C(=O)NC(C)C)c1
R = CC(C)C[C@H](NC(=O)[C@H](CC(N)=O)NC(=O)[C@@H](NC(=O)OC(C)(C)C)C(C)C)[C@@H](O)C[C@@H](C)C(=O)N[C@@H](C)C(=O)NCc1ccccc1
S = CSCC[C@H](NC(=O)[C@@H](NC(=O)OC(C)(C)C)C(C)C)C(=O)N[C@@H](CC(C)C)[C@@H](O)C[C@@H](CC(F)(F)F)C(=O)N[C@H](C(=O)NCc1ccccc1)C(C)C
Query: Thanks in advance: please rank these 4 entries by pKi, highest to lowest. Rank them, then answer with their labels in that order.
Result: P, R, Q, S
(P: 7.99, R: 6.90, Q: 5.89, S: 5.07)

###

target-or-test-system: T1, memapsin 2 (Homo sapiens, UniProt P56817)
T1 construct: pET-11 vector-derived residues 1-15 of promemapsin 2-T1 (N, cleaved yes); made in house; host or cells: E. coli
assay-overview: Inhibition of memapsin 2 proteolytic activity, fluorogenic substrate FS-2
Format: biochemical
condition-parameters: memapsin 2; apparent Ki in presence of substrate FS-2; read-out: Ki app
parameter-measured: Ki (nM)

Example molecules with recorded Ki:
CSCC[C@H](NC(=O)OCn1nc(C)cc1C)C(=O)N[C@@H](CC(C)C)[C@@H](O)C[C@@H](C)C(=O)N[C@@H](CC(C)C)C(=O)NC(CF)CF [MMI-171] :: 63.9
C=CC[C@H](C[C@H](O)[C@H](CC(C)C)NC(=O)[C@H](CC(N)=O)NC(=O)OC(C)(C)C)C(=O)N[C@H](C(=O)NCc1ccccc1)C(C)C [MMI-010] :: 29400
CC(C)C[C@H](NC(=O)[C@H](CCS(C)(=O)=O)NC(=O)[C@@H](NC(=O)OC(C)(C)C)C(C)C)[C@@H](O)C[C@@H](C)C(=O)N[C@H](C(=O)NCc1cccnc1)C(C)C [MMI-088] :: 1030
CSCC[C@H](NC(=O)[C@H](CC(C)C)NS(C)(=O)=O)C(=O)N[C@@H](CC(C)C)[C@@H](O)C[C@@H](C)C(=O)N[C@H](C(=O)NCc1ccccc1)C(C)C [MMI-093] :: 11.9

a = CSCC[C@H](NC(=O)[C@@H](NC(=O)OC(C)(C)C)C(C)C)C(=O)N[C@@H](CC(C)C)[C@@H](O)C[C@]1(C)CCN([C@H](C(=O)N2CCN(C)CC2)C(C)C)C1=O [MMI-192]
b = CSCC[C@H](NC(=O)[C@@H](NC(=O)OC(C)(C)C)C(C)C)C(=O)N[C@@H](CC(C)C)[C@@H](O)C[C@@H](C)C(=O)N[C@@H](C(C)C)C1CCCCO1 (some centres unmarked) [MMI-131]
Query: Thinking about recorded Ki values, which is higher, a or b ? Respond using the label that marks the chosen record.
Result: b
(b: 92900 nM, a: 374 nM)

Source of measurements: patent US20040121947A1
